assay: Cytotoxicity against mouse peritoneal macrophages after 24 hrs by MTT assay; type: cell-based, Peritoneal macrophage cell
Mark each entry 1 if its CC50 at 24 h sits below 20 µM, and -1 for all others.

{"smiles notation": "O=C1/C(=C/c2ccnc3ccccc23)CCC/C1=C\\c1ccnc2ccccc12", "class label": 1}
{"smiles notation": "O=C1/C(=C/c2ccc[nH]2)CCC/C1=C\\c1ccc[nH]1", "class label": -1}
{"smiles notation": "O=C1/C(=C/c2cccc3cnccc23)CCC/C1=C\\c1cccc2cnccc12", "class label": -1}
{"smiles notation": "CN(C)c1ccc(/C=C2\\CCC/C(=C\\c3ccc(N(C)C)cc3)C2=O)cc1", "class label": -1}
{"smiles notation": "C[C@@H]1[C@H](O)[C@@H](C)/C=C/C=C/C=C/C=C/C=C/C=C/C=C/[C@H](O[C@@H]2O[C@H](C)[C@@H](O)[C@H](N)[C@@H]2O)C[C@@H]2O[C@](O)(C[C@@H](O)C[C@@H](O)[C@H](O)CC[C@@H](O)C[C@@H](O)CC(=O)O[C@H]1C)C[C@H](O)[C@H]2C(=O)O", "class label": 1}
